// data source = ChEMBL document CHEMBL4725350

Target: Bifunctional epoxide hydrolase 2 (Homo sapiens, UniProt P34913)
Sequence (P34913 whole entry): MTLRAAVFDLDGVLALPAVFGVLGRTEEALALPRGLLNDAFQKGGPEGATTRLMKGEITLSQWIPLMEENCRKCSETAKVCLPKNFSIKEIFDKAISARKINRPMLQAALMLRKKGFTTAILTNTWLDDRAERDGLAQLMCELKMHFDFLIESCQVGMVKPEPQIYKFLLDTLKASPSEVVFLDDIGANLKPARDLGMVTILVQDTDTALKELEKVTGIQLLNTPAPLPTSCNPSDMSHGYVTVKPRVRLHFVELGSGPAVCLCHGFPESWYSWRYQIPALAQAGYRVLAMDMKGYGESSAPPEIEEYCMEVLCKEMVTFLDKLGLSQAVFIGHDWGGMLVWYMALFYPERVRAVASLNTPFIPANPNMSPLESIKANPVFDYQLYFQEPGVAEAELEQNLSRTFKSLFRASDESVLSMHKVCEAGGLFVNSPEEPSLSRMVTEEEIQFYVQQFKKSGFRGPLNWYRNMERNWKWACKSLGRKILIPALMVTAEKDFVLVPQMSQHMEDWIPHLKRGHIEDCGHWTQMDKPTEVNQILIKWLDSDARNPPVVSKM
Experiment: Inhibition of recombinant human soluble epoxide hydrolase using CMNPC as substrate preincubated for 5 mins followed by substrate addition and measured at 30 secs interval for 10 mins by fluorescence assay
Flag rule - IC50 less than 500 nM flags Condition met; the remaining entries get Condition not met.

Prompt: API: query returns whether the compound falls strictly under 500 nM in IC50. Query: "O=C(NC1CCN(Cc2ccccc2)CC1)NC12CC3CC(CC(C3)O1)C2"
Response: Condition not met

Prompt: API: query returns whether the compound falls strictly under 500 nM in IC50. Query: "O=C(Nc1ccc(Cl)c(C(F)(F)F)c1)NC12CC3CC(CC(C3)O1)C2"
Response: Condition met

Prompt: API: query returns whether the compound falls strictly under 500 nM in IC50. Query: "CC(=O)N1CCC(NC(=O)NC23CC4CC(CC(C4)O2)C3)CC1"
Response: Condition met

Prompt: API: query returns whether the compound falls strictly under 500 nM in IC50. Query: "CCC(=O)N1CCC(NC(=O)NC23CC4CC(CC(C4)O2)C3)CC1"
Response: Condition met

###

Biological target: Bifunctional epoxide hydrolase 2 (Mus musculus)
Sequence (P34914 whole entry): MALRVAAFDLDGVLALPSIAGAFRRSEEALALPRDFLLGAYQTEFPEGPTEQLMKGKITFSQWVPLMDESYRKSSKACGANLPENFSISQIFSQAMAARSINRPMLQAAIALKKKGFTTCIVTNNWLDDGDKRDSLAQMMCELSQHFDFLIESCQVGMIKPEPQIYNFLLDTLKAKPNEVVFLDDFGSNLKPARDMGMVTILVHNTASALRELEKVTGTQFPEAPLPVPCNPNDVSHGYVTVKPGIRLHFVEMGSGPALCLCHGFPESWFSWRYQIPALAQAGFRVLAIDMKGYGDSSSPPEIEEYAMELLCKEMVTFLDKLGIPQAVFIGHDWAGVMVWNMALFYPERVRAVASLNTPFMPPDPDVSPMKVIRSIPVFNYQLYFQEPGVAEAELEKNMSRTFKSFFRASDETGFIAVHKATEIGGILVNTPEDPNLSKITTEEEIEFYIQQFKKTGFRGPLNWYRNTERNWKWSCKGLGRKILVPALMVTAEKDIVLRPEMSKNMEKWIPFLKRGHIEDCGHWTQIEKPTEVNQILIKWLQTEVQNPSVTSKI
Test: Inhibition of recombinant mouse soluble epoxide hydrolase using CMNPC as substrate preincubated for 5 mins followed by substrate addition and measured at 30 secs interval for 10 mins by fluorescence assay
Record form. Attribute: pIC50. Fill in for each entry.
Interpret pIC50 as the negative base-10 log of the concentration measured in mol/L.

Note to self: pIC50 of "CCC(=O)N1CCC(NC(=O)NC23CC4CC(CC(C4)O2)C3)CC1" with Bifunctional epoxide hydrolase 2 (Mus musculus) was 6.63

Note to self: pIC50 of "O=C(Nc1ccc(Cl)c(C(F)(F)F)c1)NC12CC3CC(CC(C3)O1)C2" with Bifunctional epoxide hydrolase 2 (Mus musculus) was 6.46

Note to self: pIC50 of "O=C(Nc1cc(Cl)cc(OC(F)(F)F)c1)NC12CC3CC(CC(C3)O1)C2" with Bifunctional epoxide hydrolase 2 (Mus musculus) was 5.73

Note to self: pIC50 of "CS(=O)(=O)N1CCC(NC(=O)NC23CC4CC(CC(C4)O2)C3)CC1" with Bifunctional epoxide hydrolase 2 (Mus musculus) was 6.76

Note to self: pIC50 of "O=C(NC1CCN(C(=O)C2CC2)CC1)NC12CC3CC(CC(C3)O1)C2" with Bifunctional epoxide hydrolase 2 (Mus musculus) was 6.89

Note to self: pIC50 of "O=C(Nc1ccon1)NC12CC3CC(CC(C3)O1)C2" with Bifunctional epoxide hydrolase 2 (Mus musculus) was 5.41

Note to self: pIC50 of "O=C(Nc1nc2ccccc2s1)NC12CC3CC(CC(C3)O1)C2" with Bifunctional epoxide hydrolase 2 (Mus musculus) was 4.83

Note to self: pIC50 of "CC(=O)c1ccc(N2CCC(NC(=O)NC34CC5CC(CC(C5)O3)C4)CC2)cc1" with Bifunctional epoxide hydrolase 2 (Mus musculus) was 6.97

Note to self: pIC50 of "O=C(NC1CCN(C(=O)c2ccccc2F)CC1)NC12CC3CC(CC(C3)O1)C2" with Bifunctional epoxide hydrolase 2 (Mus musculus) was 7.12

Note to self: pIC50 of "CC(C)S(=O)(=O)N1CCC(NC(=O)NC23CC4CC(CC(C4)O2)C3)CC1" with Bifunctional epoxide hydrolase 2 (Mus musculus) was 7.10

Note to self: pIC50 of "CNc1nc(C)nc(N2CCC(NC(=O)NC34CC5CC(CC(C5)O3)C4)CC2)n1" with Bifunctional epoxide hydrolase 2 (Mus musculus) was 6.44

Note to self: pIC50 of "O=C(NC1CCN(C(=O)c2cccnc2)CC1)NC12CC3CC(CC(C3)O1)C2" with Bifunctional epoxide hydrolase 2 (Mus musculus) was 6.54

Note to self: pIC50 of "O=C(Nc1ccc(F)c(F)c1F)NC12CC3CC(CC(C3)O1)C2" with Bifunctional epoxide hydrolase 2 (Mus musculus) was 6.26

Note to self: pIC50 of "O=C(NC1CCN(C(=O)C2CCOCC2)CC1)NC12CC3CC(CC(C3)O1)C2" with Bifunctional epoxide hydrolase 2 (Mus musculus) was 6.29

Note to self: pIC50 of "CC(=O)N1CCC(NC(=O)NC23CC4CC(CC(C4)O2)C3)CC1" with Bifunctional epoxide hydrolase 2 (Mus musculus) was 7.03

Note to self: pIC50 of "O=C(Nc1cccc(S(F)(F)(F)(F)F)c1)NC12CC3CC(CC(C3)O1)C2" with Bifunctional epoxide hydrolase 2 (Mus musculus) was 6.14

###

Record form. Attribute: solubility kinetic at 2 h. Fill in for each entry.
Assay: physchem
Settings: 1% DMSO/99% PBS buffer solution
Use µM as the unit, but write only the number.

solubility kinetic at 2 h measured on "CC(=O)N1CCC(NC(=O)NC23CC4CC(CC(C4)O2)C3)CC1" = 59

solubility kinetic at 2 h measured on "O=C(Nc1ccc(F)c(F)c1F)NC12CC3CC(CC(C3)C1)C2" = 16

solubility kinetic at 2 h measured on "O=C(Nc1ccc(F)c(F)c1F)NC12CC3CC(CC(C3)O1)C2" = 27

solubility kinetic at 2 h measured on "CC(=O)c1ccc(N2CCC(NC(=O)NC34CC5CC(CC(C5)O3)C4)CC2)cc1" = 81.5

solubility kinetic at 2 h measured on "CC(C)S(=O)(=O)N1CCC(NC(=O)NC23CC4CC(CC(C4)O2)C3)CC1" = 34

###

Record form. Attribute: Papp. Fill in for each entry.
Assay: Apparent permeability across basolateral to apical side in human Caco-2 cells at 10 uM measured after 2 hrs by LC-MS/MS analysis
Conditions: caco-2, 2 h
Use ×10⁻⁶ cm/s as the unit, but write only the number.

Papp measured on "O=C(Nc1ccc(F)c(F)c1F)NC12CC3CC(CC(C3)O1)C2" = 15.1

Papp measured on "CC(=O)N1CCC(NC(=O)NC23CC4CC(CC(C4)O2)C3)CC1" = 9.45

Papp measured on "O=C(Nc1ccc(F)c(F)c1F)NC12CC3CC(CC(C3)C1)C2" = 0.46

Papp measured on "O=C(NC12CC3CC(CC(C3)O1)C2)N[C@H]1CC[C@H](Oc2ccc(C(=O)O)cc2)CC1" = 7.55

###

Molecular target: Bifunctional epoxide hydrolase 2 (Homo sapiens, UniProt P34913)
Test: Inhibition of recombinant human soluble epoxide hydrolase using CMNPC as substrate preincubated for 5 mins followed by substrate addition and measured at 30 secs interval for 10 mins by fluorescence assay
assay_endpoint: pIC50
Interpret pIC50 as the negative base-10 log of the concentration measured in mol/L.

pIC50 measured on "O=C(Nc1ccon1)NC12CC3CC(CC(C3)O1)C2" = 6.04

pIC50 measured on "O=C(Nc1ncncn1)NC12CC3CC(CC(C3)O1)C2" = 5.84

pIC50 measured on "O=C(NC12CC3CC(CC(C3)O1)C2)N[C@H]1CC[C@H](Oc2ccc(C(=O)O)cc2)CC1" = 8.05

pIC50 measured on "CS(=O)(=O)N1CCC(NC(=O)NC23CC4CC(CC(C4)O2)C3)CC1" = 6.61

pIC50 measured on "O=C(NC1CCN(C(=O)C2CC2)CC1)NC12CC3CC(CC(C3)O1)C2" = 6.67

pIC50 measured on "O=C(Nc1nc2ccccc2s1)NC12CC3CC(CC(C3)O1)C2" = 6.11

pIC50 measured on "O=C(Nc1cccc(S(F)(F)(F)(F)F)c1)NC12CC3CC(CC(C3)O1)C2" = 7.44

pIC50 measured on "O=C(NC1CCN(C(=O)C2CCOCC2)CC1)NC12CC3CC(CC(C3)O1)C2" = 6.31

pIC50 measured on "O=C(Nc1cc(Cl)cc(OC(F)(F)F)c1)NC12CC3CC(CC(C3)O1)C2" = 7.28

pIC50 measured on "O=C(NC1CCN(C(=O)c2cccnc2)CC1)NC12CC3CC(CC(C3)O1)C2" = 6.80
